# assay.target: PgQC (Porphyromonas gingivalis)
# experiment: Inhibitor assay for bacterial glutaminyl cyclase activity (fluorometric, H-Gln-AMC), PgQC
# Assay type: biochemical
# measurement.setup: read-out: Ki, PgQC (Table 5)
experimental.readout: Ki (nM)
I only need the number, in nM, no unit after it.

Ask: Could you share which Ki value was measured for c1ccc(CNc2ccc3nc[nH]c3n2)cc1 [Example 1, N-Benzylimidazo[4,5-b]pyridin-5-amine] ?
Reply: 1950

====

# assay.target: hQC (Homo sapiens (Human), UniProt Q16769)
# Sequence (Q16769 29-361): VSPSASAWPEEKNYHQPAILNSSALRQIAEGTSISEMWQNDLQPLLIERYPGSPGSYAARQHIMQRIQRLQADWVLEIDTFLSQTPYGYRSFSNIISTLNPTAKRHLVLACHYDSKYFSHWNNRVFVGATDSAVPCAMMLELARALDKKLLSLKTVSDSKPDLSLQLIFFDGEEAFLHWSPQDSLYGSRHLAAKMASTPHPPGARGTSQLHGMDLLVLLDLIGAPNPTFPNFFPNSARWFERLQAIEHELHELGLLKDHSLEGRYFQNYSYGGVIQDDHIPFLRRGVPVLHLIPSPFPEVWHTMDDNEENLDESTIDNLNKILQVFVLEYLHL
# experiment: Inhibitor assay for glutaminyl cyclase activity (fluorometric, H-Gln-AMC), hQC
# Assay type: biochemical
# measurement.setup: average Ki ± Std(Ki); read-out: hQC Ki
experimental.readout: Ki (µM)
I only need the number, in µM, no unit after it.

Ask: Could you share which Ki value was measured for N=C(N)NCCOc1ccc(CNc2cnc3[nH]cnc3c2)cc1 [Example 17] ?
Reply: 0.455

Ask: Could you share which Ki value was measured for c1ccc(CNc2ccc3nc[nH]c3n2)cc1 [Example 1, N-Benzylimidazo[4,5-b]pyridin-5-amine] ?
Reply: 8.8

====

# assay.target: PgQC (Porphyromonas gingivalis, UniProt Q7MT37)
# Sequence (Q7MT37 22-333 limits assumed): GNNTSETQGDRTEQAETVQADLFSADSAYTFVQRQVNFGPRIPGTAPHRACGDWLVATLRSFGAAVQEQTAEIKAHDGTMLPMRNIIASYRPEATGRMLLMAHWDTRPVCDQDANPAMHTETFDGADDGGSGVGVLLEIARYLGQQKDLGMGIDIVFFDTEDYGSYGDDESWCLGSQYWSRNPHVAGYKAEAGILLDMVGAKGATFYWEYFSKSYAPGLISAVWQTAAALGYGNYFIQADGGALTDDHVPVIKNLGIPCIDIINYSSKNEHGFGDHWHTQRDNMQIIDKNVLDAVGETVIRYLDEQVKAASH
# experiment: Inhibitor assay for bacterial glutaminyl cyclase activity (fluorometric, H-Gln-AMC), PgQC
# Format: biochemical
# measurement.setup: 50 mM Tris-HCl, 50 mM NaCl pH 8.0, 1% (v/v) DMSO, 30° C.; read-out: Ki, inhibition of the conversion of H-Gln-AMC by PgQC
experimental.readout: pKi
Note on pKi: it is the negative log10 of concentration, concentration in mol/L.

Ask: Could you share which pKi value was measured for O=C(c1cc(Cl)cc(Cl)c1)N1CCc2[nH]cnc2C1 [MWT-S-00431, reference compound] ?
Reply: 6.98

====

# assay.target: hQC (Homo sapiens (Human))
# experiment: Inhibitor assay for glutaminyl cyclase activity (fluorometric, H-Gln-AMC), hQC
# Assay type: biochemical
# measurement.setup: read-out: Ki, hQC (Table 5)
experimental.readout: pKi
Note on pKi: it is the negative log10 of concentration, concentration in mol/L.

Ask: Could you share which pKi value was measured for c1ccc(CNc2ccc3nc[nH]c3n2)cc1 [Example 1, N-Benzylimidazo[4,5-b]pyridin-5-amine] ?
Reply: 5.06

====

Exercise: for every item that follows, state its recorded Ki.
# assay.target: PgQC (Porphyromonas gingivalis, UniProt Q7MT37)
# experiment: Inhibitor assay for bacterial glutaminyl cyclase activity (fluorometric, H-Gln-AMC), PgQC
# Type: biochemical
# measurement.setup: average Ki ± Std(Ki); read-out: PgQC Ki
I only need the number, in nM, no unit after it.

Ask: Could you share which Ki value was measured for c1ccc(-c2ccc(CNc3cnc4[nH]cnc4c3)cc2)cc1 [Example 21] ?
Reply: 19

Ask: Could you share which Ki value was measured for COc1cc(CNc2cnc3[nH]cnc3c2)cc2c1OCO2 [Example 23] ?
Reply: 65

Ask: Could you share which Ki value was measured for c1nc2cc(NCc3ccc(OCCN4CCOCC4)cc3)cnc2[nH]1 [Example 26] ?
Reply: 33

Ask: Could you share which Ki value was measured for CC(C)Oc1ccc(CNc2cnc3[nH]cnc3c2)cc1 [Example 18] ?
Reply: 86

Ask: Could you share which Ki value was measured for c1nc2cc(NCc3ccc(N4CCOCC4)cc3)cnc2[nH]1 [Example 27] ?
Reply: 60

Ask: Could you share which Ki value was measured for c1ccc(CNc2ccc3nc[nH]c3n2)cc1 [Example 1, N-Benzylimidazo[4,5-b]pyridin-5-amine] ?
Reply: 1940

Ask: Could you share which Ki value was measured for COc1cc(F)c(CNc2cnc3[nH]cnc3c2)c(F)c1 [Example 22] ?
Reply: 30

Ask: Could you share which Ki value was measured for c1ccc(Oc2cccc(CNc3cnc4[nH]cnc4c3)c2)cc1 [Example 19] ?
Reply: 15

Ask: Could you share which Ki value was measured for N=C(N)NCCOc1ccc(CNc2cnc3[nH]cnc3c2)cc1 [Example 17] ?
Reply: 14

Ask: Could you share which Ki value was measured for c1ccc(-c2ccc(CNc3cnc4[nH]cnc4c3)cc2)nc1 [Example 25] ?
Reply: 38

Ask: Could you share which Ki value was measured for FC1(F)Oc2ccc(CNc3cnc4[nH]cnc4c3)cc2O1 [Example 24] ?
Reply: 67

Ask: Could you share which Ki value was measured for c1ccc(COc2ccc(CNc3cnc4[nH]cnc4c3)cc2)cc1 [Example 20] ?
Reply: 42
